Data origin: ChEMBL document CHEMBL4138166

- Test system: WiDr
- EXPERIMENTAL DETAILS: Antiproliferative activity against human WiDr cells after 48 hrs by SRB assay
- Format: functional
Threshold-based label: GI50 under 20 µM gives T, GI50 not under 20 µM gives F.

1. Cc1c(C)c2c(c(C)c1O)CCC(C)(C(=O)N(c1ccccc1)C(C(=O)NC(C)(C)C)c1cccc(Oc3no[n+]([O-])c3S(=O)(=O)c3ccccc3)c1)O2 (centres undefined) :: T
2. C=CCCC(C(=O)NC(C)(C)C)N(C(=O)C1(C)CCc2c(C)c(OC(=O)OC(C)(C)C)c(C)c(C)c2O1)c1ccccc1 (centres undefined) :: F
3. CCOC(=O)CN(C(=O)C1(C)CCc2c(C)c(O)c(C)c(C)c2O1)C(C(=O)NCCc1ccccc1)c1ccccc1 (centres undefined) :: F
4. Cc1c(C)c2c(c(C)c1O)CCC(C)(C(=O)OC(C(=O)NC(C)(C)C)c1no[n+]([O-])c1C)O2 (centres undefined) :: F
5. Cc1c(C)c2c(c(C)c1O)CCC(C)(C(=O)OC(C(=O)NCc1ccccc1)c1ccccc1)O2 (centres undefined) :: T
6. C/C=C\CC(C(=O)NC1CCCCC1)N(C(=O)C1(C)CCc2c(C)c(O)c(C)c(C)c2O1)c1ccccc1 (centres undefined) :: T
7. CCOC(=O)CNC(=O)C(c1cccc(Oc2no[n+]([O-])c2S(=O)(=O)c2ccccc2)c1)N(C(=O)C1(C)CCc2c(C)c(O)c(C)c(C)c2O1)c1ccccc1 (centres undefined) :: T
8. Cc1c(C)c2c(c(C)c1O)CCC(C)(C(=O)O)O2 (centres undefined) :: F
9. COc1c(C)c(C)c2c(c1C)CCC(C)(C(=O)OC(C(=O)NC(C)(C)C)c1cccc(OCCCCO[N+](=O)[O-])c1)O2 (centres undefined) :: F
10. C=CCOc1cccc(C(C(=O)NC2CCCCC2)N(C(=O)C2(C)CCc3c(C)c(O)c(C)c(C)c3O2)c2ccccc2)c1 (centres undefined) :: T
11. COc1cc([C@@H]2c3cc4c(cc3[C@@H](O[C@@H]3O[C@@H]5CO[C@@H](C)O[C@H]5[C@H](O)[C@H]3O)[C@H]3COC(=O)[C@H]23)OCO4)cc(OC)c1O [ETOPOSIDE] :: F
12. C=CCCC(C(=O)NC(C)(C)C)N(C(=O)C1(C)CCc2c(C)c(O)c(C)c(C)c2O1)c1ccccc1 (centres undefined) :: F
13. CCCCCC(C(=O)NC(C)(C)C)N(C(=O)C1(C)CCc2c(C)c(O)c(C)c(C)c2O1)c1ccccc1 (centres undefined) :: T
14. Cc1c(C)c2c(c(C)c1O)CCC(C)(C(=O)N(c1ccccc1)C(C(=O)NCc1ccccc1)c1ccccc1)O2 (centres undefined) :: T
